Test: Oral exposure in cynomolgus monkeys, compound alone or with excipient in capsules; plasma by LC-MS/MS
Format: in vivo
Conditions: male, cynomolgus monkey, plasma, po, 50 mg, enteric capsule, with 25 mg sodium taurocholate, fasted
Text: The influence of different excipients on the bioavailability of Compound (Ia), Compound 2 and Compound 3 in cynomolgus monkeys was investigated. […] Generally, an appropriate quantity (as indicated in Table 1) of Compound (Ia), Compound 2 or Compound 3 and an excipient were mixed to homogeneity and transferred to capsules for dosing. […]
Metric: AUC(0-inf)
Report as: number unit

Query: Fill in the blank: the reported AUC(0-inf) of C[C@H](Nc1cc(Cl)nc2c1cnn2[C@@H]1O[C@H](COP(=O)(O)CP(=O)(O)O)[C@@H](O)[C@H]1O)c1ccccc1F [Ia (•3Na)] is ____.
Reply: 9300 ng·h/mL
